Values compiled from patent US11780830B2.

Consider the following compounds; for each one, report its IC50.
Target: recombinant human VAP-1 (Homo sapiens, UniProt Q16853)
Construct: purchased R&D systems
Sequence (Q16853 1-763): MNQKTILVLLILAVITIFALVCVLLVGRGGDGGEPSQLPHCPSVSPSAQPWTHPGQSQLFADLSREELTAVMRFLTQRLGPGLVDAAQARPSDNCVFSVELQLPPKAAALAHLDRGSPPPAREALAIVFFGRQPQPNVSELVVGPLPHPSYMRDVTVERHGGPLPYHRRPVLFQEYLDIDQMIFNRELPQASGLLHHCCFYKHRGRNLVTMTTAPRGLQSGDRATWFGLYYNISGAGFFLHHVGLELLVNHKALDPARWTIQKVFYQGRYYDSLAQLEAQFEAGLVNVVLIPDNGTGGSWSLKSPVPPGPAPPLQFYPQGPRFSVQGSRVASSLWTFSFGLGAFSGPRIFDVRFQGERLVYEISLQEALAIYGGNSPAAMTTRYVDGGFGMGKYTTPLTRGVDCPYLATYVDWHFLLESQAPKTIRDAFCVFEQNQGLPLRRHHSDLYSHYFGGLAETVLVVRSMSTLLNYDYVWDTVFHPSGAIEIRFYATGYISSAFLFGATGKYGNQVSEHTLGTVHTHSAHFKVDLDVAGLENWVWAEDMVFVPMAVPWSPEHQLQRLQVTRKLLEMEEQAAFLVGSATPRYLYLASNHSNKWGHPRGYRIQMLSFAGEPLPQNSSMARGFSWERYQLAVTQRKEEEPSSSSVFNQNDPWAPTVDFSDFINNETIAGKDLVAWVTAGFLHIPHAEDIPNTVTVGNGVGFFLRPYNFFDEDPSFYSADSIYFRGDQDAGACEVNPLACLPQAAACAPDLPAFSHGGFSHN
Assay: Activity on recombinant human VAP-1, HRP-coupled Amplex Red hydrogen peroxide assay
Format: biochemical
Details: substrate 1 mM benzylamine; compound incubated with enzyme at 37° C. for 30 minutes; pH 7.4; read-out: Inhibitory Activity (IC50, nM) human VAP-1
Where a name gives a salt, the structure may show the parent alone.
Give bare numbers, in nM.

Here's what some known entries look like.
Supply IC50 value. Item: CC1(C)Oc2cc(-c3ccc(Cn4cnn(C/C(=C/F)CN)c4=O)s3)ccc2NC1=O
0.4

Supply IC50 value. Item: NC/C(=C\F)Cn1ncn(Cc2ccc(-c3ccc(OCC4CC4)nc3)s2)c1=O
7.7

Supply IC50 value. Item: NC/C(=C\F)Cn1ncn(Cc2ccc(-c3ccc(N4CCCC4=O)cc3)s2)c1=O [Example 21, hydrochloride]
2

Give IC50 for each of the items listed below.
1. NC/C(=C/F)Cn1ncn(Cc2ccc(-c3ccc4c(c3)NC(=O)OC4)s2)c1=O [Example 99, hydrochloride]
2. NC/C(=C/F)Cn1ncn(Cc2ccc(-c3ccc4nonc4c3)s2)c1=O [Example 61, hydrochloride]
3. COCCNc1ncc(-c2ccc(Cn3cnn(C/C(=C/F)CN)c3=O)s2)cn1 [Example 53, hydrochloride]
4. CN1C(=O)COc2ncc(-c3ccc(Cn4cnn(C/C(=C/F)CN)c4=O)s3)cc21
5. NC/C(=C\F)Cn1ncn(Cc2ccc(/C=C/c3ccc(F)cc3)s2)c1=O [Example 117, hydrochloride]

1.2
1.1
2.6
0.8
1.3

Give IC50 for each of the items listed below.
1. CS(=O)(=O)c1ccc(-c2ccc3sc(Cn4cnn(C/C(=C/F)CN)c4=O)cc3c2)cc1
2. CSc1ncc(-c2ccc(Cn3cnn(C/C(=C/F)CN)c3=O)s2)cn1 [Example 56, hydrochloride]

[1.2, 0.4]

Give IC50 for each of the items listed below.
1. CN1C(=O)Cc2cc(-c3ccc(Cn4cnn(C/C(=C/F)CN)c4=O)s3)cnc21 [Example 73, hydrochloride]
2. CC(C)(C)NS(=O)(=O)c1cncc(-c2ccc(Cn3cnn(C/C(=C/F)CN)c3=O)s2)c1 [Example 43, hydrochloride]
3. Cn1cc(C#Cc2ccc(Cn3cnn(C/C(=C/F)CN)c3=O)s2)cn1 [Example 131, hydrochloride]
4. CN1CCOc2cc(-c3ccc(Cn4cnn(C/C(=C/F)CN)c4=O)s3)ccc21 [Example 103, hydrochloride]
5. NC/C(=C\F)Cn1ncn(Cc2ccc(-c3cnc4c(c3)COC(=O)N4)s2)c1=O

1: 0.2; 2: 4.1; 3: 2.3; 4: 3.2; 5: 0.4
